This listing pairs substances with measured % cells in cell cycle phase: G1.
test system: HeLa cells; assay: Cell cycle assay in HeLa cells; assay type: cell-based, human; details: HeLa cells, 150 nM oligomeric compound, 48 hours after treatment; relative to untreated control (UTC=100)
In the oligonucleotide strings, read from the 5' end, every base follows the letter of its sugar. An asterisk marks phosphorothioate; unmarked linkages are phosphodiester. Other units and linkages are bracketed, terminal groups are in braces. A string of capitals states the bases alone. e = 2'-O-(2-methoxyethyl) (MOE); [5mC] = 5-methylcytosine; d = 2'-deoxy (DNA)
recorded.metric: % cells in cell cycle phase: G1

| substance | data.value |
| --- | --- |
| 328388 (eT*e[5mC]*e[5mC]*e[5mC]*eA*dT*dA*dG*d[5mC]*dA*dG*dG*dG*d[5mC]*dA*eG*eA*eG*e[5mC]*e[5mC]; antisense) [compound 328388] | 99% |
| 338836 (antisense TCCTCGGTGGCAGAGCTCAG; all 2'-MOE, all phosphorothioate, methylation of C not given here) [compound 338836] | 52% |
| 328421 (antisense eG*e[5mC]*eT*eT*eA*dG*d[5mC]*dT*dG*dT*dG*dT*d[5mC]*dT*dT*eA*e[5mC]*eA*eG*e[5mC]) [compound 328421] | 30% |
| 327878 (antisense e[5mC]*eT*eA*eG*eT*eG*eG*eT*e[5mC]*e[5mC]*eT*eA*eA*eA*e[5mC]*eA*eT*eT*eT*e[5mC]*eA*e[5mC]) [compound 327878] | 89% |
| 340350 (antisense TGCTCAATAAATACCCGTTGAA; all 2'-MOE, all phosphorothioate, methylation of C not given here) [compound 340350] | 76% |

---

system: aP2; test: aP2 mRNA expression in adipocytes (real-time PCR); assay type: cell-based, human; conditions: differentiating adipocytes transfected with oligomeric compound
In the oligonucleotide strings, read from the 5' end, every base follows the letter of its sugar. An asterisk marks phosphorothioate; unmarked linkages are phosphodiester. Other units and linkages are bracketed, terminal groups are in braces. A string of capitals states the bases alone. e = 2'-O-(2-methoxyethyl) (MOE); [5mC] = 5-methylcytosine; d = 2'-deoxy (DNA)

| substance | AP2 mRNA |
| --- | --- |
| 327904 (antisense eA*e[5mC]*eT*e[5mC]*eA*e[5mC]*e[5mC]*eG*eA*e[5mC]*eA*eG*e[5mC]*eG*eT*eT*eG*eA*eA*eT*eG*eT*eT) [compound 327904] | 65 percentage of untreated control (UTC) |
| 328417 (antisense eT*eA*eA*eT*eT*dT*dT*dA*dG*dA*dA*dT*d[5mC]*dT*dT*eA*eA*e[5mC]*eG*e[5mC]) [compound 328417] | 87 percentage of untreated control (UTC) |
| 328400 (antisense eA*eG*eT*eT*e[5mC]*dA*dA*dA*dA*d[5mC]*dT*d[5mC]*dA*dA*dT*e[5mC]*e[5mC]*e[5mC]*eA*eA) [compound 328400] | 34 percentage of untreated control (UTC) |
| 328093 (antisense eT*eA*eA*eA*e[5mC]*eA*eT*e[5mC]*eA*e[5mC]*eT*eG*e[5mC]*eA*eA*eG*eT*e[5mC]*eT*eT*eA) [compound 328093] | 97 percentage of untreated control (UTC) |
| 327937 (antisense eG*eA*eT*eT*e[5mC]*eA*e[5mC]*eA*eA*e[5mC]*eA*e[5mC]*e[5mC]*eA*eG*e[5mC]*eT) [compound 327937] | 76 percentage of untreated control (UTC) |
| 327928 (antisense eA*eA*e[5mC]*e[5mC]*eG*eA*eT*eT*eT*e[5mC]*eA*eG*eA*eT*eG*eG*eT*eG*e[5mC]*eT*eA*eG) [compound 327928] | 77 percentage of untreated control (UTC) |
| 327877 (antisense e[5mC]*eG*e[5mC]*e[5mC]*eA*eA*eT*eA*eT*eT*eT*eA*e[5mC]*eG*eT*eG*e[5mC]*eT*eG*e[5mC]*eT*eA) [compound 327877] | 77 percentage of untreated control (UTC) |
| 328112 (antisense eA*eT*e[5mC]*eA*eT*eT*eA*e[5mC]*eT*eG*eG*eA*eT*eT*eG*e[5mC]*eT*eG*eT*eA*eA) [compound 328112] | 73 percentage of untreated control (UTC) |
| 327951 (antisense e[5mC]*eA*e[5mC]*eA*eA*eA*e[5mC]*e[5mC]*eA*eT*eT*eA*eT*eG*eT*eG*e[5mC]*eT*eG*e[5mC]*eT*eA) [compound 327951] | 91 percentage of untreated control (UTC) |
| 327909 (antisense e[5mC]*e[5mC]*e[5mC]*eA*eA*e[5mC]*eA*eA*e[5mC]*eA*eT*eG*eA*eA*eA*e[5mC]*eT*eA*e[5mC]*e[5mC]*eT*eA) [compound 327909] | 88 percentage of untreated control (UTC) |
| 327960 (antisense eG*eT*e[5mC]*eT*eG*eT*e[5mC]*eA*eA*eT*eT*e[5mC]*eA*eT*eA*eG*eG*eT*e[5mC]*eA*eT) [compound 327960] | 52 percentage of untreated control (UTC) |
| 328340 (eT*eA*eA*eT*eA*dT*dA*dT*dA*dT*dT*dT*d[5mC]*dA*d[5mC]*eT*eA*e[5mC]*eG*e[5mC]) [compound 328340] | 85 percentage of untreated control (UTC) |
